src = patent US20180305451A1

- Subject Of Test: T1, HIDE1_HH-1 (Human ECD + human IgG1 Fc mutated C220S at hinge), without SP (human)
- T1 construct: Batch #280 in the Serotec and phage display work; also called HIDE1 hECD-hIg; HIDE1 (H:H) recombinant Fc fusion protein
- Assay: SPR (ProteOn), Fab PPE over captured HIDE1-HH-1, 1:1 fit
pKd: −log10 of the molar value.
Reported pKd values are given for each entry in this list.
Endpoint Name: pKd

binder="CPA.12.014 Fab (B12 S404-01.E06) (Fab, V domains shown, XOMA031 library Fab in periplasmic extract) VH: QVTLKESGPALVTPTQNLTLTCTVSGGSISSSSYYWGWIRQPPGKGLEWIGSIYYSGSTYYNPSLKSRVTISVDTSKNQFSLKLSSVTAADTAVYYCARRRNSSGWFYFDYWGQGTLVTVSS VL: QSVLTQPPSVSGAPRQRVTISCSGSRSNIGDNAVNWYQHPPGKAPKLLIYYDDLLPSGVSDRFSGSKSGTSASLAISGLQSEDEADYYCATWDDSLNGHVFGTGTKLTVLG" measured_value=7.43
binder="CPA.12.001 Fab (A01 S397-01.A04) (Fab, V domains shown, XOMA031 library Fab in periplasmic extract) VH: QVQLVESGGGLVQPGRSLRLSCAASGFTFSSYGMHWVRQAPGKGLEWVAVISYDGSNKYYADSVKGRFTISRDNSKNTLYLQMNSLRAEDTAVYYCASEGVDFWSGLDYWGQGTLVTVSS VL: QSALTQPRSASGSAGQSVTISCTGTSSDVGGHNYVSWYQQFPGKAPKLLIYEVSHRPSGVPDRFSGSKSGNTASLTVSGLQAEDEADYYCSSYADLNNLMFGGGTKLTVLG" measured_value=8.92
binder="CPA.12.005 Fab (A06 S397-01.H07) (Fab, V domains shown, XOMA031 library Fab in periplasmic extract) VH: QVQLVESGGGVVQPGRSLRVSCAVSGFTFSSYGMHWVRQAPGGGLEWVAVMSYEGSFRHYADSVKGRFTISRDNSKNTLFLQMDSLRAEDTAVYYCARDRPAGYTSGWGILDYWGQGTLVTVSS VL: EIVMTQSPATLSLSPGERATLSCRASQSVSSYLAWYQQKPGQAPRLLIYDASNRATGIPARFSGSGSGTDFTLTISSLEPEDFAVYYCQQRSNWPLTFGGGTKVDIKR" measured_value=8.64
binder="CPA.12.007 Fab (A08 S398-01.E08) (Fab, V domains shown, XOMA031 library Fab in periplasmic extract) VH: EVQLVESGGGVVQPGESLRLSCAASGFTFSSYGFHWVRQSPGEGLEWLAVISYDGTSKSYADSVKGRFTVSRDNSKETLYLQLSSLRREDTALYYCARDTWGYYYGMDVWGQGTTVTVSS VL: DIQMTQSPSFLSGSVGDRVSISCRASQDIRSHLAWYQRKPGEAPKLLIYTASSLQGGVPLRFSGSGSGTEFTLTISSLQPEDSATYYCQHLHLYPLTFGGGTKLEIKR" measured_value=8.80
binder="CPA.12.003 Fab (A03 S397-01.A12) (Fab, V domains shown, XOMA031 library Fab in periplasmic extract) VH: QVQLQESGPGLVTPSETLSLTCTVSGGSISSVSYYWGWVRQPPGKGLEWIGSIYYSGTTAHNPSLKSRVTMAVDTSKNQFSLSLSSVTAADTAVYFCARGWRYYEDYYFDHWGQGTLVTVSS VL: DIQMTQSPSTLSASVGDRVTITCRASQSINRWLAWYQQKPGKAPKILIYTASSLESGVPSRFSGSGSGTEFTLTISSLQPDDFATYYCQQYNSYPITFGQGTRLEIKR" measured_value=9.04
